Test system: Polyketide synthase Pks13 (Mycobacterium tuberculosis (strain ATCC 25618 / H37Rv)) (UniProt I6X8D2)
Sequence (I6X8D2 whole entry): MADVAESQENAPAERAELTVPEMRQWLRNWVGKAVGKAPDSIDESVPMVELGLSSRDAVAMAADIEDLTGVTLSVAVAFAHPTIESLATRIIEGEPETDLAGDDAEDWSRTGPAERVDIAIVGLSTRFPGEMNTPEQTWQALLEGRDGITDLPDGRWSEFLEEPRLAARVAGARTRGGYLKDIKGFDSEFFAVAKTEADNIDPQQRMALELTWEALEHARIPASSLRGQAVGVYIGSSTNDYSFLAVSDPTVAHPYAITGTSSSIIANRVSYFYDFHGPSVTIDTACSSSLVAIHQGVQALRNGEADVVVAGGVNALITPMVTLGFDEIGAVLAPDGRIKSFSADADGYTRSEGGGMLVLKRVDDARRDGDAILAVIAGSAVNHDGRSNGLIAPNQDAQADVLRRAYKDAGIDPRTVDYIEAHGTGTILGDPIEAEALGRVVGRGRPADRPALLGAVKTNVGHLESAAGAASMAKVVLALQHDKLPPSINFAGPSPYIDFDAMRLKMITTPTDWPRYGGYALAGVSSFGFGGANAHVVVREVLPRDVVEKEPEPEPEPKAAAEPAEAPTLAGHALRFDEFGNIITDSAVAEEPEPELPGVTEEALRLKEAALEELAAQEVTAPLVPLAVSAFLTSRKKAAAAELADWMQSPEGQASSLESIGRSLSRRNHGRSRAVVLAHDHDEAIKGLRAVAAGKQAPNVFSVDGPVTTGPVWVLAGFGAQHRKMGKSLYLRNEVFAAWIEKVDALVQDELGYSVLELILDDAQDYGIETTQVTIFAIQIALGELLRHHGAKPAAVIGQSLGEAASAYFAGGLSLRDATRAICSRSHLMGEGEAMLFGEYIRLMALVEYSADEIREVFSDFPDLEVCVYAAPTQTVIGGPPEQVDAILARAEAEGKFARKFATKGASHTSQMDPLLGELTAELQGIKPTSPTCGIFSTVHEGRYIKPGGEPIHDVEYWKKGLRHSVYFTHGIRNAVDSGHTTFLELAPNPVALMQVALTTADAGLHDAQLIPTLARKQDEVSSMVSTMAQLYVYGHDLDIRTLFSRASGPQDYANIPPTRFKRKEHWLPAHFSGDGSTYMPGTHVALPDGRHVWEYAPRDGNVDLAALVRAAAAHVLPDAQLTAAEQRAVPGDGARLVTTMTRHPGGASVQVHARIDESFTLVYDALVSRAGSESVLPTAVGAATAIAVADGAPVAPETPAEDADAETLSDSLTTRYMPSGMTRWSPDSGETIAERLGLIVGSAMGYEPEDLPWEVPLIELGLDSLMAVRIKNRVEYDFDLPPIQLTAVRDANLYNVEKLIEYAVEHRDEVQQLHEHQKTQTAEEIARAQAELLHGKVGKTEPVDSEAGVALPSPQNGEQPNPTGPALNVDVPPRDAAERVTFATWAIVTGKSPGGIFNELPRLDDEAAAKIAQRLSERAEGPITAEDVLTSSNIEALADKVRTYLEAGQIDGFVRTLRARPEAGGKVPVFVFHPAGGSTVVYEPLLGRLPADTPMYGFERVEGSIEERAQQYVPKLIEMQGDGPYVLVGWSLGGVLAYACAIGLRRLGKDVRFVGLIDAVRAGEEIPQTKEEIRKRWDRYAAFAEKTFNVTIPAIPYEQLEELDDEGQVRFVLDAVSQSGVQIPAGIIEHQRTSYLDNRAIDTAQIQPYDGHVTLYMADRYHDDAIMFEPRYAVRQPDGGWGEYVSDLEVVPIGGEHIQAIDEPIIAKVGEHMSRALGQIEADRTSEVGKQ
Assay protocol: Mycobacterium tuberculosis Polyketide synthase 13 Thioesterase (PKS13)
Assay type: functional
Parameters: scale not given: in the data most compounds retested in dose-response had high values
Test context: 30 µM
Hit rate of the full screen: of about 67,000 compounds, about 300 (0.45%) showed an effect of 50% or more. This is one part of a sample in which strong results are shown more often than they occur.
Recorded Percent Effect values for a group of molecules are listed next.
Quantity kind: Percent Effect

molecule=CNC(=O)N1CC[C@@H]2CN(Cc3cccc(OC)c3)S(=O)(=O)[C@@H]2CC1 quantity_kind="Percent Effect" test_value=-16.2%
molecule=Cc1cccc(-c2ccc(C(=O)NCCN(C)C3CC3)c(=O)[nH]2)c1 quantity_kind="Percent Effect" test_value=-29.9%
molecule=CCN(Cc1nc2c(cnn2C)c(=O)[nH]1)c1ccc(F)cc1 quantity_kind="Percent Effect" test_value=-7.87%
molecule=Cc1ncc2c(n1)CCN(CCCc1nc3ccccc3o1)C2 quantity_kind="Percent Effect" test_value=0.614%
molecule=Cn1cc(N2C(=O)CC[C@@H]3[C@H]2CCN3Cc2cccc(C#N)c2)cn1 quantity_kind="Percent Effect" test_value=-11.3%
molecule=Nc1nc2c(c(=O)[nH]1)CCN(C(=O)c1cccc3nccnc13)C2 quantity_kind="Percent Effect" test_value=2.77%
molecule=Cc1cnc(N2CC[C@H]3[C@@H]2CCC(=O)N3c2ccccc2)nc1 quantity_kind="Percent Effect" test_value=-48.4%
molecule=CNC(=O)c1cc2c(nc1NCC1CC1)CCN(c1ccncn1)CC2 quantity_kind="Percent Effect" test_value=-246%
molecule=COc1cccc(-c2cc(NCCN(C)C)nc3[nH]ccc23)n1 quantity_kind="Percent Effect" test_value=7.82%
molecule=Cn1ccnc1CN1CC[C@@H]2[C@@H](CCC(=O)N2CCc2c[nH]cn2)C1 quantity_kind="Percent Effect" test_value=-26.1%
molecule=CNC(=O)c1cc2c(nc1NCC1CC1)CCN(S(C)(=O)=O)CC2 quantity_kind="Percent Effect" test_value=55.9%
molecule=CCS(=O)(=O)N1CCc2cc(C(=O)NC)c(NCC(C)C)nc2CC1 quantity_kind="Percent Effect" test_value=-68.6%
molecule=Cc1nnc([C@H]2CC[C@@H]3[C@@H](CCN3Cc3c(C)noc3C)O2)o1 quantity_kind="Percent Effect" test_value=-7.83%
molecule=Cc1noc(C)c1CN1CC[C@@H]2O[C@@H](COCC3CC3)CC[C@@H]21 quantity_kind="Percent Effect" test_value=-31.2%
molecule="COc1cccc(N2CCN(C(=O)C(O)c3ccccc3Cl)CC2=O)c1 (stereo not given)" quantity_kind="Percent Effect" test_value=55.5%
molecule=COCCCNC(=O)c1cn(C(C)(C)C)c2ncccc12 quantity_kind="Percent Effect" test_value=0.73%
molecule=CCS(=O)(=O)N1C[C@@H]2CN(Cc3ccco3)CCO[C@@H]2C1 quantity_kind="Percent Effect" test_value=-0.26%
molecule=CNC(=O)c1cc2c(nc1NCC1CC1)CCN(CC1CC1)CC2 quantity_kind="Percent Effect" test_value=42.7%
molecule=CCOc1ccc(-c2ccc3c(c2)OCO3)cc1C(N)=O quantity_kind="Percent Effect" test_value=-15.1%
molecule="CCOc1ccc2nc(CN3CCC(CN)C3)ccc2c1 (stereo not given)" quantity_kind="Percent Effect" test_value=-11.4%
molecule="O=C(C1CCCO1)N1C[C@@H]2CCN(c3cnccn3)C[C@@H]2C1 (stereo not given in full)" quantity_kind="Percent Effect" test_value=-10.1%
molecule=O=C(C1CC1)N1C[C@H]2CCCN(S(=O)(=O)c3cccc(F)c3)[C@H]2C1 quantity_kind="Percent Effect" test_value=-2.59%
molecule=CNC(=O)c1cc2c(nc1NCC(C)C)CCN(CC1CC1)CC2 quantity_kind="Percent Effect" test_value=51.6%
molecule=CNC(=O)[C@H]1C[C@@H]2CN(Cc3csc(C)n3)C[C@@H]2N1S(C)(=O)=O quantity_kind="Percent Effect" test_value=-33.5%
molecule=CNC(=O)[C@H]1C[C@@H]2CN(S(=O)(=O)c3ccc(OC)cc3)C[C@@H]2N1C quantity_kind="Percent Effect" test_value=-0.271%
molecule="Cn1nc(C2CCCN2)c2c(C(=O)NCC(F)(F)F)cc(C3CC3)nc21 (stereo not given)" quantity_kind="Percent Effect" test_value=119%
molecule=Cn1cc(CN2C[C@H]3CCC[C@@H](CNc4nccn4C)[C@H]3C2)cn1 quantity_kind="Percent Effect" test_value=-23.6%
molecule=COc1cccc(C(=O)N2CCc3c(nc(N)[nH]c3=O)C2)c1OC quantity_kind="Percent Effect" test_value=-13.9%
molecule=NC(=O)CSc1nccc(-c2ccc3c(c2)OCO3)n1 quantity_kind="Percent Effect" test_value=59.5%
molecule=Cc1noc(C)c1CN1C[C@@H]2COC[C@@H](C(=O)N3CCCCO3)[C@@H]2C1 quantity_kind="Percent Effect" test_value=6.29%
molecule=Cc1cccc(-c2ccc(C(=O)NCC(C)(C)C(N)=O)c(=O)[nH]2)c1 quantity_kind="Percent Effect" test_value=57.5%
molecule=O=C(C1CCCCC1)N1C[C@H]2CNC[C@H]2C1 quantity_kind="Percent Effect" test_value=-22.2%
molecule="COc1cccc(N2CCN(C(=O)C(O)c3cccc(Cl)c3)CC2=O)c1 (stereo not given)" quantity_kind="Percent Effect" test_value=-13.9%
molecule=Cc1ccc(-c2noc(CC[C@@H]3CCCN4CCCC[C@H]34)n2)nn1 quantity_kind="Percent Effect" test_value=-24.6%
molecule=CNC(=O)CN1CCO[C@H]2CN(C(=O)C3CC3)C[C@H]21 quantity_kind="Percent Effect" test_value=-29%

====

Test system: Polyketide synthase Pks13 (Mycobacterium tuberculosis (strain ATCC 25618 / H37Rv)) (UniProt I6X8D2)
Assay protocol: Mycobacterium tuberculosis Polyketide synthase 13 Thioesterase (PKS13)
Type: functional
Parameters: scale not given: in the data most compounds retested in dose-response had high values
Test context: 30 µM
Among all 67,000 compounds or so, about 300 (0.45%) showed an effect of 50% or more. The list comes from a sample in which strong results are over-represented; it also holds close analogues and randomly drawn compounds.
Quantity kind: Percent Effect (%)

compound=O=C(c1cnco1)N1C[C@@H]2CC[C@H](Oc3ccccc3F)[C@@H]2C1 quantity_kind="Percent Effect" unit_abbrev=% test_value=6.58
compound=O=C(Nc1nc2c(s1)CN(S(=O)(=O)C1CC1)CC2)c1ccc(Cl)s1 quantity_kind="Percent Effect" unit_abbrev=% test_value=13.8
compound=O=C(C1CC1)N1CCc2ccccc2C12CCNCC2 quantity_kind="Percent Effect" unit_abbrev=% test_value=61.6
compound=CCc1ccccc1CN1CCN(Cc2ncc[nH]2)[C@H]2CS(=O)(=O)C[C@H]21 quantity_kind="Percent Effect" unit_abbrev=% test_value=-16.6
compound=Cc1cnc(N2C[C@@H]3[C@@H](C2)OCC(=O)N3CCN(C)C)nc1 quantity_kind="Percent Effect" unit_abbrev=% test_value=3.47
compound=CCN1C(=O)C[C@@H]2[C@@H]1CCN2S(=O)(=O)Cc1ccc(C)cc1 quantity_kind="Percent Effect" unit_abbrev=% test_value=16.4
compound=Cc1cc(C)n(-c2cncc(NCCNC(=O)C(C)(C)C)n2)n1 quantity_kind="Percent Effect" unit_abbrev=% test_value=27
compound=Cc1cc(C)n(-c2cncc(NCCNC(=O)C(C)C)n2)n1 quantity_kind="Percent Effect" unit_abbrev=% test_value=35.4
compound=Cn1cc(NC(=O)c2cc[nH]n2)cc(Cl)c1=O quantity_kind="Percent Effect" unit_abbrev=% test_value=70.5
compound=COCCCN1CCN([C@@H]2c3ccccc3C3(CCNCC3)[C@H]2O)CC1 quantity_kind="Percent Effect" unit_abbrev=% test_value=-9.22
compound=Cc1cccc2cc(CNCCCN3CCOCC3)c(=O)[nH]c12 quantity_kind="Percent Effect" unit_abbrev=% test_value=-21.5
compound=Cc1cc(CN2C[C@@H]3COC[C@H](C(=O)N4CCCCO4)[C@@H]3C2)oc1C quantity_kind="Percent Effect" unit_abbrev=% test_value=-10.7
compound=COCCc1noc(-c2cn(Cc3ccc(OC)cc3)nn2)n1 quantity_kind="Percent Effect" unit_abbrev=% test_value=-2.84
compound=O=C(Nc1cc(CSCCO)ccn1)c1ccc(Cl)o1 quantity_kind="Percent Effect" unit_abbrev=% test_value=62
compound=CCOCCN1CCN([C@@H]2c3ccccc3C3(CCNCC3)[C@H]2O)CC1 quantity_kind="Percent Effect" unit_abbrev=% test_value=82.6
compound=Cn1cc(I)c(C(=O)NCCCn2cc(Br)cn2)n1 quantity_kind="Percent Effect" unit_abbrev=% test_value=55
compound=CCOC(=O)N1CCc2ccccc2C12CCNCC2 quantity_kind="Percent Effect" unit_abbrev=% test_value=5.43
compound=c1ccc(CCCN2CC[C@H](c3nnc(-c4ccccc4)o3)C2)cc1 quantity_kind="Percent Effect" unit_abbrev=% test_value=96.4

====

Test system: Polyketide synthase Pks13 (Mycobacterium tuberculosis (strain ATCC 25618 / H37Rv)) (UniProt I6X8D2)
Assay protocol: Mycobacterium tuberculosis Polyketide synthase 13 Thioesterase (PKS13)
Type: functional
Parameters: scale not given: in the data most compounds retested in dose-response had high values
Test context: 30 µM
Hit rate of the full screen: of about 67,000 compounds, about 300 (0.45%) showed an effect of 50% or more. Many of the other results were omitted from the sample, so strong results are more common in it than they were.
Quantity kind: Percent Effect (%)

compound=Cc1cc2nc(SCC(=O)N3CCCC3)n(C)c(=O)c2[nH]1 quantity_kind="Percent Effect" test_value=-2.84
compound=CC(C)N1Cc2cccc(NCC(=O)N(C)C)c2C1 quantity_kind="Percent Effect" test_value=-31.9
compound="CC(C)(C)OC(=O)N1CCCCC1C(=O)NCc1cc[nH]n1 (centres undefined)" quantity_kind="Percent Effect" test_value=-18.2
compound=O=C(NC1CC1)[C@@H]1C[C@@H]2CCN(Cc3ccoc3)C[C@@H]2O1 quantity_kind="Percent Effect" test_value=-9.29
compound="O=C(Cc1ccsc1)N1C[C@@H]2OCCN(CC3CCCO3)[C@@H]2C1 (some centres undefined)" quantity_kind="Percent Effect" test_value=-0.843
compound=C=Cn1ncc(CN2C[C@@H]3C[C@@H](O)CN3C[C@@H]2Cc2ccccc2)c1C quantity_kind="Percent Effect" test_value=-6.39
compound=CNC(=O)c1cc2c(nc1NCC1CC1)CCNCC2 quantity_kind="Percent Effect" test_value=81.7
compound=Cc1cc(CNC(=O)[C@H]2CCCCN2C(=O)OC(C)(C)C)on1 quantity_kind="Percent Effect" test_value=-8.92
compound=CCN1CCC(N[C@@H]2CC[C@@H]2NC(=O)Cc2csc(C)n2)CC1 quantity_kind="Percent Effect" test_value=64.6

Source of measurements: ChEMBL document CHEMBL3988442
